# Organism: Homo sapiens
# experiment-description: Selectivity index, ratio of inhibition for PI3Kalpha (unknown origin) to inhibition for PI3K p120 gamma (unknown origin) using phosphatidylinositol 4,5-bisphosphate as substrate in presence of ATP incubated for 60 mins by ADP-Glo assay
Measured Selectivity ratio by item

{"molecule": "Cc1cc(-c2cnc3[nH]cc(-c4ccncc4)c3c2)cc2c1C(=O)N([C@@H](C)c1ccc(F)cc1)C2", "censor-symbol": "=", "Selectivity ratio": 142}
{"molecule": "Cc1cc(-c2cnc3[nH]cc(-c4cccnc4)c3c2)cc2c1C(=O)N(C(C)C1CC1)C2 (racemic)", "censor-symbol": "=", "Selectivity ratio": 89}
{"molecule": "Cc1cc(-c2cnc3[nH]cc(-c4ccc(C(=O)O)c(C5CC5)c4)c3c2)cc2c1C(=O)N([C@@H](C)C1CC1)C2", "censor-symbol": "=", "Selectivity ratio": 585}
{"molecule": "C[C@@H](C1CC1)N1Cc2cc(-c3cnc4[nH]cc(-c5cnn(C)c5)c4c3)cc(NS(C)(=O)=O)c2C1=O", "censor-symbol": "=", "Selectivity ratio": 449}
{"molecule": "Cc1cc(-c2c[nH]c3ncc(-c4cc5c(c(C(F)(F)F)c4)C(=O)N([C@@H](C)C4CC4)C5)cc23)ccc1C(=O)O", "censor-symbol": "=", "Selectivity ratio": 918}
{"molecule": "Cc1cc(-c2cnc3[nH]cc(-c4ccn(C)c(=O)c4)c3c2)cc2c1C(=O)N([C@@H](C)C1CC1)C2", "censor-symbol": "=", "Selectivity ratio": 466}
{"molecule": "Cc1cc(-c2cnc3[nH]cc(-c4ccc(C(C)(C)C(=O)O)cc4)c3c2)cc2c1C(=O)N([C@@H](C)C1CC1)C2", "censor-symbol": "=", "Selectivity ratio": 835}
{"molecule": "C[C@@H](C1CC1)N1Cc2cc(-c3cnc4[nH]cc(-c5ccc(C6(C(=O)O)CC6)cc5)c4c3)cc(C(F)(F)F)c2C1=O", "censor-symbol": "=", "Selectivity ratio": 742}
{"molecule": "C[C@@H](C1CC1)N1Cc2cc(-c3cnc4[nH]cc(-c5cnn(C)c5)c4c3)cc(S(C)(=O)=O)c2C1=O", "censor-symbol": "=", "Selectivity ratio": 1020}
{"molecule": "CC[C@@H](C1CC1)N1Cc2cc(-c3cnc4[nH]cc(-c5ccncc5)c4c3)cc(C)c2C1=O", "censor-symbol": "=", "Selectivity ratio": 255}
{"molecule": "CC(=O)Nc1cc(-c2cnc3[nH]cc(-c4cnn(C)c4)c3c2)cc2c1C(=O)N([C@@H](C)C1CC1)C2", "censor-symbol": ">", "Selectivity ratio": 1060}
{"molecule": "COC[C@H](C)N1Cc2cc(-c3cnc4[nH]cc(-c5ccncc5)c4c3)cc(C)c2C1=O", "censor-symbol": "=", "Selectivity ratio": 51}
{"molecule": "CNS(=O)(=O)c1cc(-c2cnc3[nH]cc(-c4cnn(C)c4)c3c2)cc2c1C(=O)N([C@@H](C)C1CC1)C2", "censor-symbol": ">", "Selectivity ratio": 4160}
{"molecule": "C[C@@H](C1CC1)N1Cc2cc(-c3cnc4[nH]cc(-c5cnn(C)c5)c4c3)cc(C#N)c2C1=O", "censor-symbol": "=", "Selectivity ratio": 1060}
{"molecule": "Cc1cc(-c2cnc3[nH]cc(-c4ccc(C(N)=O)cc4)c3c2)cc2c1C(=O)N([C@@H](C)C1CC1)C2", "censor-symbol": "=", "Selectivity ratio": 711}
{"molecule": "Cc1cc(-c2cnc3[nH]cc(-c4cnn(C)c4)c3c2)cc2c1C(=O)N([C@@H](C)C1CC1)C2", "censor-symbol": "=", "Selectivity ratio": 898}

====

Item-by-item account of IC50
# tgt: Phosphatidylinositol 4,5-bisphosphate 3-kinase catalytic subunit gamma isoform (Homo sapiens)
# experiment-description: Inhibition of PI3K p120gamma (unknown origin) using phosphatidylinositol 4,5-bisphosphate as substrate in presence of ATP incubated for 60 mins by ADP-Glo assay

{"compound": "Cc1cc(-c2cnc3cn[nH]c3c2)cc2c1C(=O)N(C(C)C1CC1)C2 (racemic)", "IC50 / nM": 490}
{"compound": "COc1cc(-c2cnc3[nH]cc(-c4cnn(C)c4)c3c2)cc2c1C(=O)N([C@@H](C)C1CC1)C2", "IC50 / nM": 4.3}
{"compound": "Cc1cc(-c2cnc3[nH]cc(-c4ccncc4)c3c2)cc2c1C(=O)N([C@H](C)C1CC1)C2", "IC50 / nM": 9}
{"compound": "Cc1cc(-c2cnc3[nH]cc(-c4ccccn4)c3c2)cc2c1C(=O)N([C@@H](C)C1CC1)C2", "IC50 / nM": 33}

====

# tgt: Phosphatidylinositol 4,5-bisphosphate 3-kinase catalytic subunit gamma isoform (Homo sapiens)
# experiment-description: Inhibition of PI3K p120gamma (unknown origin) using phosphatidylinositol 4,5-bisphosphate as substrate in presence of ATP incubated for 60 mins by ADP-Glo assay
pIC50: −log10 of the molar value.
Quick list: pIC50 per entry.

{"molecule": "Cc1cc(-c2cnc3[nH]cc(-c4ccnc(C(F)(F)F)c4)c3c2)cc2c1C(=O)N([C@@H](C)C1CC1)C2", "pIC50": 7.80}
{"molecule": "Cc1cc(-c2cnc3[nH]cc(-c4ccncc4)c3c2)cc2c1C(=O)N([C@@H](C)C1CC1)C2", "pIC50": 8.47}
{"molecule": "Cc1cc(-c2cnc3[nH]ncc3c2)cc2c1C(=O)N([C@@H](C)C1CC1)C2", "pIC50": 7.46}
{"molecule": "Cc1cc(-c2cnc3[nH]cc(-c4ccncc4)c3c2)cc2c1C(=O)N(C1CCOCC1)C2", "pIC50": 7.30}
{"molecule": "Cc1cc(-c2cnc3[nH]nnc3c2)cc2c1C(=O)N(C(C)C1CC1)C2 (racemic)", "pIC50": 5.80}
{"molecule": "Cc1cc(-c2cnc3[nH]cc(C(=O)O)c3c2)cc2c1C(=O)N([C@@H](C)C1CC1)C2", "pIC50": 7.89}
{"molecule": "CNC(=O)c1cc(-c2cnc3[nH]cc(-c4cnn(C)c4)c3c2)cc2c1C(=O)N([C@@H](C)C1CC1)C2", "pIC50": 8.10}
{"molecule": "Cc1cc(-c2c[nH]c3ncc(-c4cc5c(c(C(F)(F)F)c4)C(=O)N([C@@H](C)C4CC4)C5)cc23)ccc1C(=O)O", "pIC50": 8.92}

====

# tgt: Phosphatidylinositol 4,5-bisphosphate 3-kinase catalytic subunit gamma isoform (Homo sapiens, UniProt P48736)
# Sequence (P48736 whole entry, canonical isoform): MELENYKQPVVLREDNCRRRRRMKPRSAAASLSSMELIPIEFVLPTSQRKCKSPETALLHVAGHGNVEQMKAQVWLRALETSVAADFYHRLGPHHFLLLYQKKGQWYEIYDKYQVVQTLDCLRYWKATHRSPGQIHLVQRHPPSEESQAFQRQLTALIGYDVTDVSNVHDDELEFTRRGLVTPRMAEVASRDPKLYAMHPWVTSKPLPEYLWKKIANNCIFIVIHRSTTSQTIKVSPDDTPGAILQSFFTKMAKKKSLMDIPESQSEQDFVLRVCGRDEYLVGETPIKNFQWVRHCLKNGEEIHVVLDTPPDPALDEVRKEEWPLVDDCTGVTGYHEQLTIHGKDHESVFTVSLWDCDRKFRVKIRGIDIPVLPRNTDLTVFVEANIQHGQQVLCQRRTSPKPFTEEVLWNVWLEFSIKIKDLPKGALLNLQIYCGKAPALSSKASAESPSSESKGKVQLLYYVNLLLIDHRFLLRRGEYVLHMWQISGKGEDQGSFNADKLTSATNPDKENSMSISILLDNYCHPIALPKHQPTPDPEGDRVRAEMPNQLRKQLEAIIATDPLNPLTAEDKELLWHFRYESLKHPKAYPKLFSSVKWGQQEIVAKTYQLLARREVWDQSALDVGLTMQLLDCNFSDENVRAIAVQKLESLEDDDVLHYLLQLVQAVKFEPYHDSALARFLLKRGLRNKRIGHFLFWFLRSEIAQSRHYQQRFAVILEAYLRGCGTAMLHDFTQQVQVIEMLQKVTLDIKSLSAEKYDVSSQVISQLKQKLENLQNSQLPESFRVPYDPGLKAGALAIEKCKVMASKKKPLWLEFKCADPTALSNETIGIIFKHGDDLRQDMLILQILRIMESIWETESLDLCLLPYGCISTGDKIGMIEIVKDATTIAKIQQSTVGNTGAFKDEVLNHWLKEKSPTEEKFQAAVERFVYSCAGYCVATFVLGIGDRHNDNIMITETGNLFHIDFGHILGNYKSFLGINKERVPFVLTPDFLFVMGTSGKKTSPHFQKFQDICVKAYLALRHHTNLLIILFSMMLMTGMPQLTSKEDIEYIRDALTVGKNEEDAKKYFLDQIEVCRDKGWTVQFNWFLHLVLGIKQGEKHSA
# experiment-description: Inhibition of PI3K p120gamma (unknown origin) using phosphatidylinositol 4,5-bisphosphate as substrate in presence of ATP incubated for 60 mins by ADP-Glo assay
Catalogue of IC50 readings, one per entry.

{"molecule": "C[C@@H](C1CC1)N1Cc2cc(-c3cnc4[nH]cc(-c5cnn(C)c5)c4c3)cc(C(F)(F)F)c2C1=O", "IC50 (nM)": 2.4}
{"molecule": "Cc1cc(-c2cnc3[nH]ncc3c2)cc2c1C(=O)N(C(C)C1CC1)C2 (racemic)", "IC50 (nM)": 90}
{"molecule": "Cc1cc(-c2cnc3[nH]cc(-c4ccncc4)c3c2)cc2c1C(=O)N(C(C)(C)C1CC1)C2", "IC50 (nM)": 28}
{"molecule": "Cc1cc(-c2cnc3[nH]cc(-c4ccc(C(=O)O)c(N5CCCC5)c4)c3c2)cc2c1C(=O)N([C@@H](C)C1CC1)C2", "IC50 (nM)": 4}
{"molecule": "Cc1cc(-c2cnc3[nH]cc(-c4ccc(C(=O)O)cc4)c3c2)cc2c1C(=O)N([C@@H](C)C1CC1)C2", "IC50 (nM)": 2.5}
{"molecule": "Cc1cc(-c2cnc3[nH]cc(-c4ccc(C(=O)O)c(F)c4)c3c2)cc2c1C(=O)N([C@@H](C)C1CC1)C2", "IC50 (nM)": 3.1}
{"molecule": "Cc1cc(-c2c[nH]c3ncc(-c4cc(C)c5c(c4)CN([C@@H](C)C4CC4)C5=O)cc23)cc(C)c1C(=O)O", "IC50 (nM)": 2.2}
{"molecule": "Cc1cc(-c2cnc3[nH]cc(-c4cnn(C)c4)c3c2)cc2c1C(=O)N([C@@H](C)C1CC1)C2", "IC50 (nM)": 3.26}

====

Form field: pIC50 (one value per entry).
# tgt: Phosphatidylinositol 4,5-bisphosphate 3-kinase catalytic subunit gamma isoform (Homo sapiens, UniProt P48736)
# experiment-description: Inhibition of PI3K p120gamma (unknown origin) using phosphatidylinositol 4,5-bisphosphate as substrate in presence of ATP incubated for 60 mins by ADP-Glo assay
pIC50: −log10 of the molar value.

{"smiles-record": "CC(=O)Nc1cc(-c2cnc3[nH]cc(-c4cnn(C)c4)c3c2)cc2c1C(=O)N([C@@H](C)C1CC1)C2", "pIC50": 8.60}
{"smiles-record": "Cc1cc(-c2cnc3[nH]cc(-c4ccnc(N)c4)c3c2)cc2c1C(=O)N([C@@H](C)C1CC1)C2", "pIC50": 8.24}
{"smiles-record": "Cc1cc(-c2cnc3[nH]cc(-c4ccncc4)c3c2)cc2c1C(=O)N(C(C1CC1)C1CC1)C2", "pIC50": 8.17}
{"smiles-record": "Cc1cc(-c2c[nH]c3ncc(-c4cc(C)c5c(c4)CN([C@@H](C)C4CC4)C5=O)cc23)ccc1C(=O)O", "pIC50": 8.55}
{"smiles-record": "Cc1cc(-c2cnc3[nH]cc(C(=O)NC4CCOCC4)c3c2)cc2c1C(=O)N([C@@H](C)C1CC1)C2", "pIC50": 8.35}
{"smiles-record": "Cc1cc(-c2cnc3[nH]cc(-c4ccc(C(C)(C)O)nc4)c3c2)cc2c1C(=O)N([C@@H](C)C1CC1)C2", "pIC50": 8.48}
{"smiles-record": "CC[C@@H](C1CC1)N1Cc2cc(-c3cnc4[nH]cc(-c5ccncc5)c4c3)cc(C)c2C1=O", "pIC50": 8.22}
{"smiles-record": "Cc1cc(-c2cnc3[nH]cc(-c4ccncc4)c3c2)cc2c1C(=O)N([C@@H](C)c1ccc(F)cc1)C2", "pIC50": 7.40}
